biological target: lysozyme fibrils (Gallus gallus, UniProt P00698); test: Fluorescence emission of probe bound to lysozyme fibrils; type: binding, chicken; settings: 5 μM fibrils + 1 μM probe; pH 3.0; excitation 330 nm
Sequence (P00698 19-147): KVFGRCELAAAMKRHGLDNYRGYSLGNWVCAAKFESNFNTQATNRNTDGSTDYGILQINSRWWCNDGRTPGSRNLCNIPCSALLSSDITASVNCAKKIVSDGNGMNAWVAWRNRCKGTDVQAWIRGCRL
TEST READOUT: λem2: emission maxima of probe bound to lysozyme fibrils (nm)
Supply the numeric figure in nm, leaving out any unit text.

Field: example entries. Status: answers known.
Oc1ccc(/C=C/c2ccc3ccccc3c2)cc1O [Compound 3]: 410
Oc1ccc(/C=C/c2ccccc2)cc1O [Compound 2, (E)-4-Styrylbenzene-1,2-diol]: 382
Oc1ccc(/C=C/c2cc3ccc4cccc5ccc(c2)c3c45)cc1O [Compound 5]: 420

Moving on to the next molecule.
Recall the reported λem2: emission maxima of probe bound to lysozyme fibrils of Oc1ccc(/C=C/c2ccc3cc4ccccc4cc3c2)cc1O [Compound 4] on lysozyme fibrils (Gallus gallus, UniProt P00698) and write it down.
451

---

molecular target: Aβ1-42 fibrils (Homo sapiens, UniProt P05067); experiment: Titration of Aβ1-42 fibrils on a fixed probe concentration
Sequence (P05067 672-713): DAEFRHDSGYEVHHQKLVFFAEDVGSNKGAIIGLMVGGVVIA
Parameter pKd: see the listing below.
On this scale, pKd is minus log10 of a concentration expressed in M (mol/L).

Known results for molecules:
Oc1ccc(/C=C/c2ccc3ccccc3c2)cc1O: 5.66
Oc1ccc(/C=C/c2ccccc2)cc1O [Compound 2, (E)-4-Styrylbenzene-1,2-diol]: 5.37
Oc1ccc(/C=C/c2ccc3cc4ccccc4cc3c2)cc1O: 5.80

Name the recorded pKd of the item `Oc1ccc(/C=C/c2cc3ccc4cccc5ccc(c2)c3c45)cc1O` in your answer.
5.89
